Where do these numbers come from? They come from paper PMC2556091.

Target sequence: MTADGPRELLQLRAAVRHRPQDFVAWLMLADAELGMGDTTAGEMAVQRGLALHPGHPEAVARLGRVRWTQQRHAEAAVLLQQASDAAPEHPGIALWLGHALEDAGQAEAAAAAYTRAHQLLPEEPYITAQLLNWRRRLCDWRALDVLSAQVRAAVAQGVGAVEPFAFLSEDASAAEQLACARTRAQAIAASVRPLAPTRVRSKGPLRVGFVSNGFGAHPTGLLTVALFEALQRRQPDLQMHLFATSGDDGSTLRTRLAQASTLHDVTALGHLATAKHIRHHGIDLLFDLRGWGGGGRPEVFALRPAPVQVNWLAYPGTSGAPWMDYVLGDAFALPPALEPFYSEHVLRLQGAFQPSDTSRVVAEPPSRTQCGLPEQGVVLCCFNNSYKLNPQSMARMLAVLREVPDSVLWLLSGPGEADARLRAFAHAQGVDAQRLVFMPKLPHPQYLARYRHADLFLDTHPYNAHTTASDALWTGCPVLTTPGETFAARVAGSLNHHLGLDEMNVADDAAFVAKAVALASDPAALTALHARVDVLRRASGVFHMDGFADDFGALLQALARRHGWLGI
Measure name: pKd
pKd (log units): -log10 of the concentration in mol/L.

Using the record for `CC(=O)N[C@H]1[C@@H](OP(=O)(O)OP(=O)(O)OC[C@H]2O[C@@H](n3ccc(=O)[nH]c3=O)[C@H](O)[C@@H]2O)O[C@H](CO)[C@@H](O)[C@@H]1O` , report its pKd.
5.38
